target: Tryptophan 2,3-dioxygenase (Homo sapiens, UniProt P48775); assay: Inhibition of N-terminal hexa-histidine tagged human TDO (19 to 388 residues) expressed in Escherichia coli Transetta (DE3) using L-tryptophan as substrate preincubated with enzyme for 10 mins followed by substrate addition and measured after 30 to 60 mins by microplate reader analysis
Sequence (P48775 whole entry, the tested form may be a part): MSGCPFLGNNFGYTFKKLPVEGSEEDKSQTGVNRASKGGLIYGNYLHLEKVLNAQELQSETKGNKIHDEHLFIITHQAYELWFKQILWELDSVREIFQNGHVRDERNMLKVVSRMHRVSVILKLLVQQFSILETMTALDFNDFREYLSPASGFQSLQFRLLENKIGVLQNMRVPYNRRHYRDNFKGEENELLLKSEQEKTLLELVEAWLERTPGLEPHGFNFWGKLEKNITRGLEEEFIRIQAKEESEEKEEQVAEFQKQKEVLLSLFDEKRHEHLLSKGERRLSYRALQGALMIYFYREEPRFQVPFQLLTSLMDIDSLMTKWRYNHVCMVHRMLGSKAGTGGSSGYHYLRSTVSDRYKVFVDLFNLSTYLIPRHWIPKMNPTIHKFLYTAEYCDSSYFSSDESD
Each entry below carries its reported pIC50.
FYI, pIC50 means -log10 of a concentration in mol per litre.

Study these solved cases before continuing.
Oc1ccc(CNc2cc(C(F)(F)F)cc3[nH]ncc23)cc1 | 5.59
O=[N+]([O-])c1cc(Cl)ccc1CNc1cc(C(F)(F)F)cc2[nH]ncc12 | 5.77
O=[N+]([O-])c1ccccc1CNc1cc(C(F)(F)F)cc2[nH]ncc12 | 5.59

(Q) Given the entry `FC(F)(F)c1cccc(CNc2cc(C(F)(F)F)cc3[nH]ncc23)c1` , report its measured pIC50.
(A) 4.91

(Q) Record: `FC(F)(F)c1cc(NC[C@H]2CCCCN2)c2cn[nH]c2c1`
(A) 6.34

(Q) Record: `O=[N+]([O-])c1ccc(O)cc1CNc1cc(Br)cc2[nH]ncc12`
(A) 6.34
